Record form. Attribute: normalized growth. Fill in for each entry.
- procedure-text: chemical genetic growth profiling, strain panel (AID 1159580);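 also: tested at 20 µM; growth read once vehicle control cultures reached saturation at 30 °C; 1 = growth at the plate median or of vehicle wells; lower values mean less growth of the strain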
- conditions-used: S. cerevisiae deletion strains, growth OD, locus YDL185W, strain tfp1, active compounds read low
Among all 5,500 compounds or so, about 2,000 (36%) were called active. Not shown: some 18% with an inconclusive outcome. The list shows a part of the results.
Give bare numbers.

Sample records with normalized growth:
GET /value?item= Cc1ccc(O)cc1 &field=normalized growth returns 0.99

Entry NC(=O)N1c2ccccc2CC(=O)c2ccccc21 — recorded normalized growth = 0.976

The compound identified as CCCCOc1ccc(CC(=O)NO)cc1 registered its normalized growth at 1

Notebook: CC(=O)O[C@]1(C(C)=O)CCC2C3C=C(C)C4=CC(=O)CCC4(C)C3CCC21C (stereo not given in full) , normalized growth read as 0.984

// for each compound in input: emit normalized growth
1. OCc1ccccc1O[C@@H]1O[C@H](CO)[C@@H](O)[C@H](O)[C@H]1O
2. CCc1nc(N)nc(N)c1-c1ccc(Cl)cc1

[0.983, 1]

Give one value of normalized growth per listed compound.
1. NC/C=C/C(=O)O
2. CCCCCC(=O)O[C@]1(C(C)=O)CCC2C3CCC4=CC(=O)CC[C@]4(C)C3CC[C@@]21C (stereo not given in full)
3. CCc1cccc(C)c1N(C(=O)CCl)C(C)COC (stereo not given)
4. COC(=O)COc1cc(Cl)c(Cl)cc1Cl

1.02
1.02
1.02
0.992

----------
- procedure-text: chemical genetic growth profiling, strain panel (AID 1159580)
- conditions-used: S. cerevisiae deletion strains, growth OD, locus YLR370C, strain arc18, active compounds read low
Out of some 5,500 compounds screened, about 2,000 (36%) were called active. About 18% were inconclusive and are not listed. This is one part of the list.
property-measured: normalized growth
Answers are plain numbers.

Please fill in: normalized growth reported for COc1ccc2c(c1)C1(C)CCC(=O)CC1CC2 (configuration not stated) = 1

N=c1nc(N2CCCCC2)cc(N)n1O has a reported normalized growth of 0.982

The compound identified as CC(C)[C@H](N)C(=O)OCCOCn1cnc2c(=O)[nH]c(N)nc21 registered its normalized growth at 1.03

In plain terms, CC(C)(N=NC(C)(C)C(=N)N)C(=N)N has a documented normalized growth of 1.03

Give normalized growth for each listed item.
1. CC[C@H]1OC(=O)C[C@@H](O)[C@H](C)[C@@H](O[C@@H]2O[C@H](C)[C@@H](O[C@H]3C[C@@](C)(O)[C@@H](O)[C@H](C)O3)[C@H](N(C)C)[C@H]2O)[C@@H](CC=O)C[C@@H](C)C(=O)/C=C/C(C)=C/[C@@H]1CO[C@@H]1O[C@H](C)[C@@H](O)[C@@H](OC)[C@H]1OC
2. CC(=O)O[C@]1(C(C)=O)CCC2C3C[C@H](C)C4=CC(=O)CC[C@]4(C)C3CC[C@@]21C (some centres not stated)

0.986
0.925

Briefly, normalized growth measured for CNC1(C)C2CCC(C2)C1(C)C (configuration not stated) : 0.989

----------
Give normalized growth for every item shown.
- procedure-text: chemical genetic growth profiling, strain panel (AID 1159580);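 also: tested at 20 µM; growth read once vehicle control cultures reached saturation at 30 °C; 1 = growth at the plate median or of vehicle wells; lower values mean less growth of the strain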
- conditions-used: S. cerevisiae deletion strains, growth OD, locus YER167W, strain BCK2, active compounds read low
Hit rate of the full screen: of about 5,500 compounds, about 2,000 (36%) were called active. Another 18% or so got no clear call; they are omitted. The list shows a part of the results.

Below are some molecules; for each one, tell me its normalized growth.
1. OCc1ccccc1O[C@@H]1O[C@H](CO)[C@@H](O)[C@H](O)[C@H]1O
2. CC1(C)C2CC[C@]3(C)C(C(=O)C=C4[C@H]5C[C@@](C)(C(=O)O)CC[C@]5(C)CC[C@]43C)[C@@]2(C)CC[C@@H]1O (some centres undefined)
3. CC(C)[N+](C)(CCOC(=O)C1c2ccccc2Oc2ccccc21)C(C)C
4. COc1ccc2cc1Oc1ccc(cc1)C[C@H]1c3cc(c(OC)cc3CCN1C)Oc1c(OC)c(OC)cc3c1[C@H](C2)N(C)CC3

1. 0.99 (inactive)
2. 1.04 (inactive)
3. 1.01 (inactive)
4. 0.964 (inactive)

I need normalized growth for every entry listed below, if you could help.
1. NC[C@@H]1O[C@H](O[C@@H]2[C@@H](CO)OC(O[C@@H]3[C@@H](O)[C@H](N)C[C@H](N)[C@H]3OC3O[C@H](CN)[C@@H](O)[C@H](O)[C@H]3N)[C@@H]2O)[C@H](N)[C@@H](O)[C@@H]1O (some centres undefined)
2. Oc1ccc(O)cc1
3. Cc1ccc(O)cc1
4. Cc1ccc2c(c1)CC[C@H]1CC(=O)CC[C@]21C
5. CC(C)=CCc1c(O)cc2oc(C)cc(=O)c2c1O
6. CC1(C)S[C@@H]2[C@H](NC(=O)[C@H](NC(=O)N3CCNC3=O)c3ccccc3)C(=O)N2C1C(=O)O (some centres undefined)
7. CN1C2CC3C[C@H]1C(O3)C2O (some centres undefined)
8. COc1cc(O)c(C(=O)c2ccccc2)cc1O

1.02 (inactive)
0.926 (inactive)
1.03 (inactive)
0.991 (inactive)
0.932 (inactive)
0.997 (inactive)
1.01 (inactive)
1 (inactive)

For the 8 molecules below, give their normalized growth values.
1. COc1ccc(C2CC(=O)c3ccc(OC)cc3O2)cc1 (centres undefined)
2. O=C1C[C@@H](c2ccccc2)Oc2cc(O)cc(O)c21
3. COc1ccc([C@@H]2CC(=O)c3c(O)cc(O)cc3O2)cc1O
4. CN1Cc2c(ccc3c2OCO3)C2C(O)Cc3cc4c(cc3C21)OCO4 (centres undefined)
5. O=c1ccc2cc(O)c(O)cc2o1
6. COc1ccc(C(=O)c2ccccc2O)c(O)c1
7. CCc1ccc(CCOc2ccc(CC3SC(=O)NC3=O)cc2)nc1 (centres undefined)
8. Cc1ccc(C(=O)C(C)CN2CCCCC2)cc1 (centres undefined)

1: 0.89 (active); 2: 0.947 (inactive); 3: 1 (inactive); 4: 0.989 (inactive); 5: 1.01 (inactive); 6: 0.951 (inactive); 7: 1 (inactive); 8: 1.02 (inactive)

# per-item lookup of normalized growth; items listed below
1. CCC1(C)CC(=O)NC1=O (centres undefined)
2. CC(C)=CCc1c(O)cc(C)oc1=O
3. CCC(C(=O)O)c1ccccc1 (centres undefined)
4. CC(C)CC1C(=O)N2CCC[C@H]2C2(O)O[C@](NC(=O)C3C=C4c5cccc6[nH]c(Br)c(c56)C[C@H]4N(C)C3)(C(C)C)C(=O)N12 (some centres undefined)
5. C=CCc1ccc2c(c1)OCO2
6. CCN(CC)C(=S)SSC(=S)N(CC)CC

1: 1.01 (inactive); 2: 0.991 (inactive); 3: 1 (inactive); 4: 0.961 (inactive); 5: 1.02 (inactive); 6: 0.0526 (active)

----------
- procedure-text: chemical genetic growth profiling, strain panel (AID 1159580);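 also: tested at 20 µM; growth read once vehicle control cultures reached saturation at 30 °C; 1 = growth at the plate median or of vehicle wells; lower values mean less growth of the strain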
- conditions-used: S. cerevisiae deletion strains, growth OD, locus YLR058C, strain SHM2
About 2,000 (36%) of roughly 5,500 compounds were called active. Roughly 18% stayed inconclusive and do not appear here. Cut-off read from the data, not from the text of the source: active = normalized growth mostly below about 0.91 (no sharp cut-off); inconclusive = no clear call, values can overlap the other calls; inactive = mostly above about 0.92. The list shows a part of the results.
Give your call using only these classes: active, inactive

These solved cases illustrate the format of a correct answer.
Recorded test call requested for CC(=O)O[C@]1(C(C)=O)CCC2C3C=C(C)C4=CC(=O)CCC4(C)C3CCC21C (stereo not given in full)
inactive

Fill in: this test's call for O=c1ccc2ccccc2o1 is ___
inactive

Called result for CCCCCC(=O)O[C@]1(C(C)=O)CCC2C3CCC4=CC(=O)CC[C@]4(C)C3CC[C@@]21C (stereo not given in full)
inactive

How did this test come out for COc1ccc(-c2coc3c(O)c(OC)ccc3c2=O)cc1 ?
inactive

Record request — test call for COc1c(CC=C(C)C)c2c(c3oc(=O)c(-c4ccc(O)cc4)c(O)c13)C=CC(C)(C)O2
inactive

Outcome logged for COc1ccc(-c2coc3c(OC)c(OC)cc(O)c3c2=O)cc1 in this assay:
inactive

Consider the additional compound presented here.
Status in this test for CCC(C(=O)O)c1ccccc1 (stereo not given) ?
inactive

----------
- procedure-text: chemical genetic growth profiling, strain panel (AID 1159580);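 also: tested at 20 µM; growth read once vehicle control cultures reached saturation at 30 °C; 1 = growth at the plate median or of vehicle wells; lower values mean less growth of the strain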
- conditions-used: S. cerevisiae deletion strains, growth OD, locus YMR205C, strain PFK2, active compounds read low
About 2,000 (36%) of roughly 5,500 compounds were called active. Another 18% or so got no clear call; they are omitted. This is one part of the list.
Field: normalized growth. Provide a value for each of the compounds that follow.
Give bare numbers.

Illustrative cases are given below, each with its answer.
response.value for CC(=O)O[C@H]1C(=O)[C@@]2(C)C([C@H](OC(=O)c3ccccc3)[C@]3(O)C[C@H](O)C(C)=C1C3(C)C)[C@]1(OC(C)=O)CO[C@@H]1C[C@@H]2O (stereo partly specified) (field: normalized growth) = 0.989

OCCN(CCO)c1nc(N2CCCCC2)c2nc(N(CCO)CCO)nc(N3CCCCC3)c2n1 has a reported normalized growth of 1.01

The compound CN1C2CC3C[C@H]1C(O3)C2O (stereo partly specified) showed normalized growth equal to 0.974

Field normalized growth (entry Cc1ccc2c(c1)CC[C@H]1CC(=O)CC[C@]21C ) reads 1

Query CC(=O)O[C@]1(C(C)=O)CCC2C3C=C(Cl)C4=CC(=O)CC[C@]4(C)C3CC[C@@]21C (stereo partly specified) yields normalized growth of 0.943

compound COc1ccc2cc1Oc1ccc(cc1)C[C@H]1c3c(cc4c(c3Oc3cc5c(cc3OC)CCN(C)[C@@H]5C2)OCO4)CCN1C , normalized growth observed: 0.973

Per the record, COc1cc(OC)c2c(c1)O[C@H](c1ccc(OC)c(OC)c1)[C@@H](O)C2 has normalized growth of 1.03

Value of measured normalized growth for the entry OCC(O)Cc1ccc2c(c1)OCO2 (stereo unspecified) : 0.981

Parameters: items (list). Returns: normalized growth for each item.
1. C/C=C(/C(=C/C)c1ccc(O)cc1)c1ccc(O)cc1
2. CC[C@@H](CO)NCCN[C@@H](CC)CO
3. CC(=O)OC1CC23CC24CCC(OC2OCC(O)C(O)C2O)C(C)(C)C4CCC3C2(C)CC3OC4(CC(C)C3C12C)OC(O)C1(C)OC41 (stereo unspecified)
4. COC(=O)C1=COC(OC2OC(CO)C(O)C(O)C2O)C2C(C)CC(=O)C12O (stereo unspecified)
5. c1ccc(CC2=NCCN2)cc1
6. CC(=O)O[C@]1(C(C)=O)CCC2C3C=C(C)C4=CC(=O)CCC4(C)C3CCC21C (stereo partly specified)
7. COc1ccc2cc1Oc1ccc(cc1)C[C@H]1c3cc(c(OC)cc3CCN1C)Oc1c(OC)c(OC)cc3c1[C@H](C2)N(C)CC3

1. 0.958
2. 1.05
3. 0.994
4. 0.945
5. 1
6. 0.888
7. 0.963

Reported normalized growth for CC(C)[C@H](N)C(=O)OCCOCn1cnc2c(=O)[nH]c(N)nc21 was 1.01
